Target: human TTR (Homo sapiens, UniProt P02766)
Construct: purchased Sigma Aldrich
Assay: Competition with [125I]-T4 for binding to transthyretin
Conditions: TTR binding, [125I]-T4 competition; read-out: IC50, Full dose-resonse experiments, Exp 2
Measured Parameter: pIC50
Numbers only, as −log10 of the molar value.

Each of the following entries comes with a recorded value; kindly state pIC50 for each.
1. Oc1c(Cl)c(Cl)c(Cl)c(-c2cc(Cl)c(Cl)cc2Cl)c1Cl [5-OH-PCB 183]
2. Oc1c(Cl)cc(Cl)c(-c2cc(Cl)c(Cl)c(Cl)c2Cl)c1Cl [3' OH-PCB 182]
3. Oc1c(Cl)c(Cl)cc(-c2cc(Cl)c(Cl)c(Cl)c2Cl)c1Cl [3'-OH-PCB 180]
4. Oc1c(Cl)cc(-c2cc(Cl)c(Cl)c(Cl)c2Cl)c(Cl)c1Cl [4'-OH-PCB 172]

[7.68, 7.69, 7.71, 7.85]

###

Biological target: human TTR (Homo sapiens)
Construct: purchased Sigma Aldrich
Experiment: Competition with [125I]-T4 for binding to transthyretin
Conditions: TTR binding relative to T4
What Relative potency (REP), Exp 1 was measured for each of the following?

[[record]]
compound_string = "Oc1c(Cl)c(Cl)c(Cl)c(-c2cc(Cl)c(Cl)cc2Cl)c1Cl"
reported_measurement = 3.54

[[record]]
compound_string = "Oc1c(Cl)cc(-c2cc(Cl)c(Cl)c(Cl)c2Cl)c(Cl)c1Cl"
reported_measurement = 5.37

[[record]]
compound_string = "Oc1c(Cl)cc(Cl)c(-c2cc(Cl)c(Cl)c(Cl)c2Cl)c1Cl"
reported_measurement = 3.68


Switching to the query record.
Any idea what Relative potency (REP), Exp 1 came out for Oc1c(Cl)c(Cl)cc(-c2cc(Cl)c(Cl)c(Cl)c2Cl)c1Cl on human TTR (Homo sapiens)?
3.96

###

Molecular target: human TTR (Homo sapiens)
Construct: purchased Sigma Aldrich
Test: Competition with [125I]-T4 for binding to transthyretin
Conditions: TTR binding, [125I]-T4 competition; read-out: IC50, Full dose-resonse experiments, Exp 1
Measured Parameter: pIC50
Numbers only, as −log10 of the molar value.

# example entries with known answers
[[record]]
molecule = "Oc1c(Cl)cc(Cl)c(-c2cc(Cl)c(Cl)c(Cl)c2Cl)c1Cl [3' OH-PCB 182]"
system_tested = "human TTR (Homo sapiens)"
measured_parameter = "pIC50"
reported_measurement = 7.76

[[record]]
molecule = "Oc1c(Cl)c(Cl)cc(-c2cc(Cl)c(Cl)c(Cl)c2Cl)c1Cl [3'-OH-PCB 180]"
system_tested = "human TTR (Homo sapiens)"
measured_parameter = "pIC50"
reported_measurement = 7.79

[[record]]
molecule = "Oc1c(Cl)cc(-c2cc(Cl)c(Cl)c(Cl)c2Cl)c(Cl)c1Cl [4'-OH-PCB 172]"
system_tested = "human TTR (Homo sapiens)"
measured_parameter = "pIC50"
reported_measurement = 7.92


Now take the following molecule into account.
Any idea what pIC50 was measured for Oc1c(Cl)c(Cl)c(Cl)c(-c2cc(Cl)c(Cl)cc2Cl)c1Cl [5-OH-PCB 183] ?
7.74

###

Exercise: state measured Relative potency (REP), Mean for each of the compounds provided.
Biological target: human TTR (Homo sapiens)
Construct: purchased Sigma Aldrich
Assay: Competition with [125I]-T4 for binding to transthyretin
Conditions: TTR binding relative to T4
Numbers only.

Guide cases for Relative potency (REP), Mean, answers given:
[[record]]
compound = "Oc1c(Cl)cc(-c2cc(Cl)c(Cl)c(Cl)c2Cl)c(Cl)c1Cl [4'-OH-PCB 172]"
reported_measurement = 4.64

[[record]]
compound = "Oc1c(Cl)cc(Cl)c(-c2cc(Cl)c(Cl)c(Cl)c2Cl)c1Cl [3' OH-PCB 182]"
reported_measurement = 3.18

[[record]]
compound = "Oc1c(Cl)c(Cl)cc(-c2cc(Cl)c(Cl)c(Cl)c2Cl)c1Cl [3'-OH-PCB 180]"
reported_measurement = 3.40


Okay, next one:
Tell me the measured Relative potency (REP), Mean of Oc1c(Cl)c(Cl)c(Cl)c(-c2cc(Cl)c(Cl)cc2Cl)c1Cl [5-OH-PCB 183] , please.
3.08

###

Target: human TTR (Homo sapiens)
Construct: purchased Sigma Aldrich
Assay: Competition with [125I]-T4 for binding to transthyretin
Conditions: TTR binding relative to T4
Can you tell me Relative potency (REP), Exp 2 for the items I'm about to list?
Give bare numbers.

[[record]]
compound_string = "Oc1c(Cl)cc(-c2cc(Cl)c(Cl)c(Cl)c2Cl)c(Cl)c1Cl"
measured_parameter = "Relative potency (REP), Exp 2"
reported_measurement = 3.90

[[record]]
compound_string = "Oc1c(Cl)c(Cl)cc(-c2cc(Cl)c(Cl)c(Cl)c2Cl)c1Cl"
measured_parameter = "Relative potency (REP), Exp 2"
reported_measurement = 2.84

[[record]]
compound_string = "Oc1c(Cl)cc(Cl)c(-c2cc(Cl)c(Cl)c(Cl)c2Cl)c1Cl"
measured_parameter = "Relative potency (REP), Exp 2"
reported_measurement = 2.68


Next item in the queue.
Quick one: Relative potency (REP), Exp 2 of Oc1c(Cl)c(Cl)c(Cl)c(-c2cc(Cl)c(Cl)cc2Cl)c1Cl ?
2.61

###

Please go through the items and note down their T4 displacement, Pilot experiment.
Biological target: human TTR (Homo sapiens, UniProt P02766)
Construct: purchased Sigma Aldrich
Assay: Competition with [125I]-T4 for binding to transthyretin
Details: @100 nM
Answers are plain numbers, in % T4 displacement @100 nM.

Reference set, count: 3
[[record]]
compound = "Oc1c(Cl)cc(Cl)c(-c2cc(Cl)c(Cl)c(Cl)c2Cl)c1Cl [3' OH-PCB 182]"
reported_measurement = 93

[[record]]
compound = "Oc1c(Cl)c(Cl)cc(-c2cc(Cl)c(Cl)c(Cl)c2Cl)c1Cl [3'-OH-PCB 180]"
reported_measurement = 95

[[record]]
compound = "Oc1c(Cl)cc(-c2cc(Cl)c(Cl)c(Cl)c2Cl)c(Cl)c1Cl [4'-OH-PCB 172]"
reported_measurement = 95


// switching to the query compound
Which T4 displacement, Pilot experiment is reported for this compound? Oc1c(Cl)c(Cl)c(Cl)c(-c2cc(Cl)c(Cl)cc2Cl)c1Cl [5-OH-PCB 183]
92

###

Target: human TTR (Homo sapiens, UniProt P02766)
Construct: purchased Sigma Aldrich
Assay: Competition with [125I]-T4 for binding to transthyretin
Conditions: TTR binding, [125I]-T4 competition; n = 2; read-out: IC50, Mean
Measured Parameter: pIC50
One number for each entry, as −log10 of the molar value.

These solved cases illustrate the format of a correct answer.
[[record]]
compound_string = "Oc1c(Cl)c(Cl)c(Cl)c(-c2cc(Cl)c(Cl)cc2Cl)c1Cl"
reported_measurement = 7.71

[[record]]
compound_string = "Oc1c(Cl)cc(-c2cc(Cl)c(Cl)c(Cl)c2Cl)c(Cl)c1Cl"
reported_measurement = 7.89

[[record]]
compound_string = "Oc1c(Cl)cc(Cl)c(-c2cc(Cl)c(Cl)c(Cl)c2Cl)c1Cl"
reported_measurement = 7.72


Next up:
Fill blank: measured pIC50 of the compound Oc1c(Cl)c(Cl)cc(-c2cc(Cl)c(Cl)c(Cl)c2Cl)c1Cl is ____.
7.75
